Numbers sourced from ChEMBL document CHEMBL1147798.

- test target: Platelet-derived growth factor receptor (Mus musculus, UniProt P05622+P26618)
- assay text: Inhibition of endogenous PDGFR in Swiss3T3 fibroblasts
pIC50: −log10 of the molar value.
experimental readout: pIC50

Here is how some molecules turned out for pIC50.
O=C(c1cc2ccccc2[nH]1)c1cc2cc(F)ccc2[nH]1 6.12
O=C(c1cc2ccccc2[nH]1)c1cc2cc(Oc3ccccc3)ccc2[nH]1 5.00
O=C(c1cc2cc(F)ccc2[nH]1)c1cc2cc(OCCN3CCCCC3)ccc2[nH]1 6.30
COc1ccc2[nH]c(C(=O)c3cc4ccc(F)cc4[nH]3)cc2c1 6.08
O=C(c1cc2ccccc2[nH]1)c1cc2cc(O)ccc2[nH]1 6.70
COc1ccc2cc(C(=O)c3cc4cc(OCCN5CCCCC5)ccc4[nH]3)[nH]c2c1 6.00
Cc1cccc2[nH]c(C(=O)c3cc4cc(F)ccc4[nH]3)cc12 5.92

(P) COc1cccc2[nH]c(C(=O)c3cc4ccccc4[nH]3)cc12
(Q) O=C(c1cc2cc(F)ccc2[nH]1)c1cc2cc(OCc3ccccc3)ccc2[nH]1
input: Look at P and Q . Which one has the lower recorded pIC50 number? Lab log: write the label of the selected item as the result.
output: Q

----------
- test target: Receptor-type tyrosine-protein kinase FLT3 (Homo sapiens)
- Sequence (P36888 whole entry): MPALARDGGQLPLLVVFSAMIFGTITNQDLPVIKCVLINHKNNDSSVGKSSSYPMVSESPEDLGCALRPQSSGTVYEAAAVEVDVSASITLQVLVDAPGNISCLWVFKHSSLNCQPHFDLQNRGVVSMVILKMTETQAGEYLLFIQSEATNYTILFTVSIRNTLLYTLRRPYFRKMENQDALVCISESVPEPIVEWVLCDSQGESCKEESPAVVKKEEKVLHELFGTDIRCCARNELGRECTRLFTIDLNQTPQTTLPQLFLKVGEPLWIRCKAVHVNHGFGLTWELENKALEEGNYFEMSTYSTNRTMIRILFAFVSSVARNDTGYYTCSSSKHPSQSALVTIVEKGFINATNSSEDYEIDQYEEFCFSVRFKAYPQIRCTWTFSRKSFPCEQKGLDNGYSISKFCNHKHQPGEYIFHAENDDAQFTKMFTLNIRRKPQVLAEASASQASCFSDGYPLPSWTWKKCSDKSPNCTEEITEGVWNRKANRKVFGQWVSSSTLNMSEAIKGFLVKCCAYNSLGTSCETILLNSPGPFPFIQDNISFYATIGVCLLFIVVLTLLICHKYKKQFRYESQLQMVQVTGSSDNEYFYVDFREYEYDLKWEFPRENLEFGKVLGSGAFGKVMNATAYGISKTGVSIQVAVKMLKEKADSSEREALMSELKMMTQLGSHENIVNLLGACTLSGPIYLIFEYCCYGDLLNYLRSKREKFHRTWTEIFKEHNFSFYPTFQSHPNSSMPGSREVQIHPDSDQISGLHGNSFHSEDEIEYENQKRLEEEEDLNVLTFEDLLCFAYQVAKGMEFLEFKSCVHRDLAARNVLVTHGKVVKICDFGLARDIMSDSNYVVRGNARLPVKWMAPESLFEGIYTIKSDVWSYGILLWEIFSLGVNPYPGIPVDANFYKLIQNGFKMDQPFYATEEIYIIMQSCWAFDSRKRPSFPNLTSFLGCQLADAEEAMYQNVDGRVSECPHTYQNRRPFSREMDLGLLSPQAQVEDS
- assay text: Inhibition of endogenous FLT3 in EOL1 cells
- Format: cell-based
experimental readout: IC50 (nM)

(A) Cc1cc2ncc(-c3ccccc3)nc2cc1C [AG1295]
(B) O=C(c1cc2ccccc2[nH]1)c1cc2cc(O)ccc2[nH]1
input: Look at A and B . Which one has the lower recorded IC50 number? Lab log: write the label of the selected item as the result.
output: B
